B1: HDV Ribozyme (parent)
chain: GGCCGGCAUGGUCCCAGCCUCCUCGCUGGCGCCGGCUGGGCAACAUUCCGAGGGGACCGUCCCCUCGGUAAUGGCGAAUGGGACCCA

- Variants of: B1
- METHOD_SUMMARY: self-cleavage, relative activity (ratio to wild type); higher = more cleavage; co-transcriptional
Lab note: anything with self-cleavage at or over 0.2 counts as met; the rest go in not met.

Check if self-cleavage >= 0.2 (inclusive). Item: C4A G39U not met

For this variant, is measured self-cleavage 0.2 or higher? G54A A78G met

Hi, just wondering whether C48A U60A shows self-cleavage of 0.2 or higher. met

hey, is self-cleavage for this one >= 0.2? A71G C84A met

# bool: self-cleavage of A42C C49G >= 0.2 not met

Reported self-cleavage at or above 0.2? G25C A87G not met

hey, is self-cleavage for this one >= 0.2? G5U G52C met

Please indicate if the recorded self-cleavage for G11U C57G meets or exceeds 0.2. met

Check this variant for self-cleavage at or above 0.2: G5C A78U not met

Please check the record U23A C66G and state if its self-cleavage is at or above 0.2. met

// inclusive: self-cleavage at least 0.2? input: G5C U60A not met
